- subjectOfTest: CYP1A2 (Homo sapiens, UniProt P05177)
- Sequence (P05177 whole entry): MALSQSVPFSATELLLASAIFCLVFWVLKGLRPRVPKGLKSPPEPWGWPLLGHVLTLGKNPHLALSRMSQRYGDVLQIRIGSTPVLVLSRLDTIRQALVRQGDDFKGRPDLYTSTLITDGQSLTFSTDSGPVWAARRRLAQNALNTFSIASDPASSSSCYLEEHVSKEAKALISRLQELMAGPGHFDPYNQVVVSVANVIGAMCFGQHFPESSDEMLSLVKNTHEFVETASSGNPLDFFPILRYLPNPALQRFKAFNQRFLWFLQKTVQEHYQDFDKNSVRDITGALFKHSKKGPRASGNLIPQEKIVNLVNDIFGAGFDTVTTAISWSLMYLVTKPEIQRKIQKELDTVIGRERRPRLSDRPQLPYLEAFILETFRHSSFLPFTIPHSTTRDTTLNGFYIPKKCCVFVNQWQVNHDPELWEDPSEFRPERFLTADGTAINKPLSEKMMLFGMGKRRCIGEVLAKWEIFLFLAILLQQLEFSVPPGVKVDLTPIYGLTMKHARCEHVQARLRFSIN
- procedureDetails: in vitro
- Assay type: in vitro ADME
- conditionDescription: microsomes
- Source text: In addition, there was little or no evidence of metabolism-dependent inhibition of any of the enzymes tested.

- entrySmiles: "CC1(C)CC[C@]2(NC(=O)C(C)(F)F)CC[C@]3(C)[C@H](C(=O)C=C4[C@@]5(C)C=C(C#N)C(=O)C(C)(C)[C@@H]5CC[C@]43C)[C@@H]2C1"
  subjectOfTest: "CYP1A2 (Homo sapiens, UniProt P05177)"
  inhibition at 3 µM: "< 50%"

---

List of concentration at 6 h values.
- procedureDetails: Distribution into mouse tissues after PO QD×3
- Assay type: in vivo
- conditionDescription: lung, mice PO QD×3 25 mg/kg, 6 h after last dose, semi-quantitative, read-out: Drug content, Lung
propertyLabel: concentration at 6 h (nM)

- compound: "CCNC(=O)[C@]12CCC(C)(C)C[C@H]1[C@H]1C(=O)C=C3[C@@]4(C)C=C(C#N)C(=O)C(C)(C)[C@@H]4CC[C@@]3(C)[C@]1(C)CC2 [RTA 405, reference compound]"
  valueUnit: "nM"
  reported: 1630
- compound: "CC1(C)CC[C@]2(NC(=O)C(C)(F)F)CC[C@]3(C)[C@H](C(=O)C=C4[C@@]5(C)C=C(C#N)C(=O)C(C)(C)[C@@H]5CC[C@]43C)[C@@H]2C1"
  valueUnit: "nM"
  reported: 533

---

- System: CYP3A4/5
- procedureDetails: CYP450 inhibition in pooled human liver microsomes, CYP3A4/5
- Format: in vitro ADME
- conditionDescription: read-out: Ki, direct inhibition of CYP3A4/5

- entrySmiles: "CC1(C)CC[C@]2(NC(=O)C(C)(F)F)CC[C@]3(C)[C@H](C(=O)C=C4[C@@]5(C)C=C(C#N)C(=O)C(C)(C)[C@@H]5CC[C@]43C)[C@@H]2C1"
  subjectOfTest: "CYP3A4/5"
  Ki: "~0.5 µM"

---

- procedureDetails: Plasma protein binding (ultracentrifugation), minipig
propertyLabel: fraction unbound

- entrySmiles: "CC1(C)CC[C@]2(NC(=O)C(C)(F)F)CC[C@]3(C)[C@H](C(=O)C=C4[C@@]5(C)C=C(C#N)C(=O)C(C)(C)[C@@H]5CC[C@]43C)[C@@H]2C1"
  propertyLabel: "fraction unbound"
  reported: "< 0.01"

---

- subjectOfTest: CYP2D6 (Homo sapiens, UniProt P10635)
- Sequence (P10635 whole entry): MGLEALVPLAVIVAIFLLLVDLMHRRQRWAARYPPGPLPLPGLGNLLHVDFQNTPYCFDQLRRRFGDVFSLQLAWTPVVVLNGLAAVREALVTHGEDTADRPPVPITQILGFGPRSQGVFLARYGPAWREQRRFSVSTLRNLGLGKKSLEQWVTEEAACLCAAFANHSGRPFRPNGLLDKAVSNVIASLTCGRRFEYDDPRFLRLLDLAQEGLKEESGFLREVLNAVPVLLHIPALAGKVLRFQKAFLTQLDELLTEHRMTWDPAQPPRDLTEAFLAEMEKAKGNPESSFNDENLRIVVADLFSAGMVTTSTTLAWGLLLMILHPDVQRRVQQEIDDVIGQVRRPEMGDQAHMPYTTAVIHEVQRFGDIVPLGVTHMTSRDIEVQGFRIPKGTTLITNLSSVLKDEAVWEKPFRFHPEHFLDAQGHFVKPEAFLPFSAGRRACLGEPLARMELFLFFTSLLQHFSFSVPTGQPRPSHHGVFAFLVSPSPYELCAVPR
- procedureDetails: CYP450 inhibition in pooled human liver microsomes, CYP2D6
- Format: in vitro ADME
- conditionDescription: highest concentration tested (3 μM)

- entrySmiles: "CC1(C)CC[C@]2(NC(=O)C(C)(F)F)CC[C@]3(C)[C@H](C(=O)C=C4[C@@]5(C)C=C(C#N)C(=O)C(C)(C)[C@@H]5CC[C@]43C)[C@@H]2C1"
  subjectOfTest: "CYP2D6 (Homo sapiens, UniProt P10635)"
  inhibition at 3 µM: "< 50%"
